- tested system: Prostaglandin G/H synthase 2 (Homo sapiens)
- Sequence (whole entry): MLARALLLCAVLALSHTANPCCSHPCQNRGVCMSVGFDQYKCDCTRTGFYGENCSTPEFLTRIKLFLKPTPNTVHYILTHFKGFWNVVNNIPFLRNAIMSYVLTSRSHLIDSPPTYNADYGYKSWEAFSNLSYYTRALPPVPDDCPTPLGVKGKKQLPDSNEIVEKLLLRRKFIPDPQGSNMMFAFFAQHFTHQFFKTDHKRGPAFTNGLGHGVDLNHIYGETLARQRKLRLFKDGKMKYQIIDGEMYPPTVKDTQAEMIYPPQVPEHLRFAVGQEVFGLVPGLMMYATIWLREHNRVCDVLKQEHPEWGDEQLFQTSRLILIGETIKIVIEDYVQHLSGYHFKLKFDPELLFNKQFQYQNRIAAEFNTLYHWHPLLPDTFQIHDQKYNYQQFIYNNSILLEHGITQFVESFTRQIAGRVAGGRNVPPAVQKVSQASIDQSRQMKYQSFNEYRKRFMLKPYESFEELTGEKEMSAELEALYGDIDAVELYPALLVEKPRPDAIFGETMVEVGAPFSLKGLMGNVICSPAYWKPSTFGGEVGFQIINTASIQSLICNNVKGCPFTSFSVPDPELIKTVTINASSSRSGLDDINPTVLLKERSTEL
- condition details: Blood; at 1 µM
Kindly supply the reported inhibition values for the records listed here.
Reply numerically in %, unit not repeated.

Return reported inhibition; argument: CCOc1ccc(-c2c(Cl)ncn2-c2ccc(S(C)(=O)=O)cc2)cc1
100

Repeat with CCOc1ccc(-c2c(Cl)ncn2-c2ccc(S(C)(=O)=O)cc2)cc1F
96.5

Let us now turn to Cc1ccc(-c2c(Cl)ncn2-c2ccc(S(C)(=O)=O)cc2)cc1F
75.1

What do you have for COc1ccc(-c2c(Cl)ncn2-c2ccc(S(N)(=O)=O)cc2)cc1F [CIMICOXIB] ?
100

Another compound to check: CS(=O)(=O)c1ccc(-n2cnc(Cl)c2-c2ccc3c(c2)CCO3)cc1
69.9

And CS(=O)(=O)c1ccc(-n2cnc(Br)c2-c2ccc(F)cc2)cc1 ?
85.2

Then this compound: CS(=O)(=O)c1ccc(-n2cnc(Cl)c2-c2ccccc2F)cc1
66.2

Same thing, different compound: CCN(CC)c1ccc(-c2c(Cl)ncn2-c2ccc(S(C)(=O)=O)cc2)cc1
9.7

Same question for CC(C)c1ccc(-c2c(Cl)ncn2-c2ccc(S(C)(=O)=O)cc2)cc1 please.
70

Next record, please: CS(=O)(=O)c1ccc(-n2cnc(Cl)c2-c2ccc(F)cc2)cc1
89

Would you mind doing Cc1ccc(-c2c(Cl)ncn2-c2ccc(S(C)(=O)=O)cc2)cc1 as well?
90.5

Again, but for CCSc1ccc(-c2c(Cl)ncn2-c2ccc(S(C)(=O)=O)cc2)cc1
76.7

And what about the compound CCCOc1ccc(-c2c(Cl)ncn2-c2ccc(S(C)(=O)=O)cc2)cc1 ?
0

What do we get for COc1ccc(-c2c(Cl)ncn2-c2ccc(S(C)(=O)=O)cc2)cc1 ?
100

Also check CS(=O)(=O)c1ccc(-n2cnc(Cl)c2-c2ccccc2)cc1
82.6

Entry to check: CSc1ccc(-c2c(Cl)ncn2-c2ccc(S(C)(=O)=O)cc2)cc1
49

And what about the compound COc1ccc(-c2c(Cl)ncn2-c2ccc(S(C)(=O)=O)cc2)c(F)c1 ?
100

Next: CS(=O)(=O)c1ccc(-n2cnc(Cl)c2-c2ccc(F)cc2F)cc1
79.6

----------
Parameter IC50, tested on Prostaglandin G/H synthase 1 (Homo sapiens, UniProt P23219), listed per item.
Sequence (P23219 whole entry): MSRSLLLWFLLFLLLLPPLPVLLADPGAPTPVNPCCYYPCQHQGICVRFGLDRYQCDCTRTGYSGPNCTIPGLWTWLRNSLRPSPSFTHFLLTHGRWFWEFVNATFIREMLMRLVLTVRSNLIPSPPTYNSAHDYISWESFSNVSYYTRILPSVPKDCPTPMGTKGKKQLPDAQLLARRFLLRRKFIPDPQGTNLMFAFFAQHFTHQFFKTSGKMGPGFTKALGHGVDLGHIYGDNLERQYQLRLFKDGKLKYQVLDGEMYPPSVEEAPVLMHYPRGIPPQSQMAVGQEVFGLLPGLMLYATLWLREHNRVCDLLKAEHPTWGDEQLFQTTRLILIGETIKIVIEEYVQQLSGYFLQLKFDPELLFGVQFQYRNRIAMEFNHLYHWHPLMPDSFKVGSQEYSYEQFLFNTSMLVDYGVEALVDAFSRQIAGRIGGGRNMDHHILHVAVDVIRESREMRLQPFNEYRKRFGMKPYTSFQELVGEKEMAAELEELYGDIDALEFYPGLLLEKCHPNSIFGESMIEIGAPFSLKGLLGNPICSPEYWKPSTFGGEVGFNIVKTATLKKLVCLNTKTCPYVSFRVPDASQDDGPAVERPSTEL

Please report the recorded IC50 for CS(=O)(=O)c1ccc(-c2c(Cl)ncn2-c2ccc(F)cc2)cc1 .
> 10 µM

What about this molecule? CCS(=O)(=O)c1ccc(-c2c(Cl)ncn2-c2ccc(S(C)(=O)=O)cc2)cc1
> 10 µM

Please give the result for CCCCCc1ncn(-c2ccc(S(C)(=O)=O)cc2)c1-c1ccc(F)cc1 too.
> 10 µM

Try the molecule Cc1ccc(-c2c(Cl)ncn2-c2ccc(S(C)(=O)=O)cc2)cc1
> 10 µM

Repeat for the following molecule: CS(=O)(=O)c1ccc(-n2c(-c3ccc(F)cc3)cnc2CO)cc1
> 10 µM

Would you kindly repeat that for NS(=O)(=O)c1ccc(-n2cnc(Cl)c2-c2ccccc2)cc1 ?
5.1 µM

And the next one, CCOc1cc(OCC)cc(-c2c(Cl)ncn2-c2ccc(S(C)(=O)=O)cc2)c1 ?
> 10 µM

What about CC(=O)Nc1ccc(-c2c(Cl)ncn2-c2ccc(S(C)(=O)=O)cc2)cc1 ?
> 10 µM

Same question, CS(=O)(=O)c1ccc(-n2cnc(Cl)c2-c2ccc(Cl)cc2)cc1 this time
> 10 µM

Another molecule to check: CS(=O)(=O)c1ccc(-c2cnc(CF)n2-c2ccc(F)cc2)cc1
> 10 µM

Also CS(=O)(=O)c1ccc(-n2cnc(Cl)c2-c2ccc(OC(F)(F)F)cc2)cc1 ?
> 10 µM

// next record CS(=O)(=O)c1ccc(-n2cnc(Cl)c2-c2ccc(F)cc2F)cc1
23.8 µM

Lookup CCOc1ccc(-c2c(Cl)ncn2-c2ccc(S(N)(=O)=O)cc2)cc1Cl
15.5 µM

Next entry: CS(=O)(=O)c1ccc(-n2c(CO)nc(Cl)c2-c2ccc(F)cc2)cc1
> 10 µM

Likewise for CC1Cc2cc(-c3c(Cl)ncn3-c3ccc(S(C)(=O)=O)cc3)ccc2O1 (configuration not stated) ?
> 10 µM

Proceed to CCN(CC)c1ccc(-c2c(Cl)ncn2-c2ccc(S(C)(=O)=O)cc2)cc1
> 10 µM

One more molecule: CS(=O)(=O)c1ccc(-c2cnc(C=O)n2-c2ccc(F)cc2)cc1
> 10 µM

Query CS(=O)(=O)c1ccc(-n2cnc(Cl)c2-c2cc(Br)co2)cc1 next
> 1 µM

Follow-up item: CS(=O)(=O)c1ccc(-n2cnc(Cl)c2-c2cc3ccccc3o2)cc1
> 1 µM

Subsequent entry: CS(=O)(=O)c1ccc(-n2cnc(Br)c2-c2ccc(F)cc2)cc1
> 10 µM

And CS(=O)(=O)c1ccc(-n2cnc(Cl)c2-c2ccccc2F)cc1 ?
100 µM

Please give the result for NS(=O)(=O)c1ccc(-n2cnc(Cl)c2-c2ccc(Cl)nc2)cc1 too.
> 10 µM

----------
- tested system: Prostaglandin G/H synthase 2 (Homo sapiens)
- condition details: Blood; at 10 µM
- Description: Inhibition of Prostaglandin G/H synthase 2 (COX-2) in human whole blood at 10 uM
attribute measured: inhibition (%)
Just the number in %, nothing appended.

# lookup: inhibition of Cc1nc(Cl)n(-c2ccc(F)cc2)c1-c1ccc(S(C)(=O)=O)cc1
42.6

Here is the next compound: CS(=O)(=O)c1ccc(-c2c(Cl)ncn2-c2ccc(F)cc2)cc1
15.3

Again, but for CCOc1ccc(-c2c(Cl)ncn2-c2ccc(S(C)(=O)=O)cc2)cc1Cl
100

Same for CS(=O)(=O)c1ccc(-n2cnc(Cl)c2-c2cccnc2)cc1
100

Could you do the same for COc1ccc(-c2c(Cl)ncn2-c2ccc(S(N)(=O)=O)cc2)cc1Cl , please?
99.9

----------
- tested system: Prostaglandin G/H synthase 2 (Homo sapiens) (UniProt P35354)
- condition details: Blood; at 10 µM
attribute measured: inhibition (%)
Answer in %, number only, no unit symbol.

What inhibition value was documented for this molecule, COc1ccc(-c2c(Cl)ncn2-c2ccc(S(N)(=O)=O)cc2)cc1F [CIMICOXIB] ?
100

Now try COc1ccc(-c2c(Cl)ncn2-c2ccc(S(C)(=O)=O)cc2)cc1 .
100

Also, CC1Cc2cc(-c3c(Cl)ncn3-c3ccc(S(C)(=O)=O)cc3)ccc2O1 (stereo not given) please.
59.9

Would you mind doing CCOc1ccc(-c2c(Cl)ncn2-c2ccc(S(N)(=O)=O)cc2)cc1Cl as well?
99.9

Lookup CCOc1cc(OCC)cc(-c2c(Cl)ncn2-c2ccc(S(C)(=O)=O)cc2)c1
0

----------
I'd be grateful if you could share measured inhibition in vivo at 1 mg/kg for these entries.
- Test system: Rattus norvegicus
- protocol notes: In vivo anti-inflammatory activity by air pouch model at 1 mg/kg perorally in rat.
- Format: functional
- condition details: route oral
Unit % implied. Number only.

Query (molecule): CS(=O)(=O)c1ccc(-c2cnc(C#N)n2-c2ccc(F)cc2)cc1 ; field requested: inhibition in vivo at 1 mg/kg
79

Then this molecule: Cc1ccc(-c2c(Cl)ncn2-c2ccc(S(C)(=O)=O)cc2)cc1F
18.5

Same thing, different molecule: COc1ccc(-c2c(Cl)ncn2-c2ccc(S(C)(=O)=O)cc2)cc1Cl
71.1

Item: CCN(CC)c1ccc(-c2c(Cl)ncn2-c2ccc(S(C)(=O)=O)cc2)cc1
64.1

And the next one, CN(C)c1ccc(-c2c(Cl)ncn2-c2ccc(S(C)(=O)=O)cc2)cc1Cl ?
43

// same read-out, input: NS(=O)(=O)c1ccc(-n2cnc(Cl)c2-c2ccc(F)cc2)cc1
93.2

Same again, this time with CCOc1ccc(-c2c(Cl)ncn2-c2ccc(S(N)(=O)=O)cc2)cc1
98.9

// next record CS(=O)(=O)c1ccc(-c2cnc(Cl)n2-c2ccc(F)cc2)cc1
55.2

What do we get for COc1cc(-c2c(Cl)ncn2-c2ccc(S(N)(=O)=O)cc2)ccc1F ?
58.9

Likewise for CS(=O)(=O)c1ccc(-n2cnc(Br)c2-c2ccc(F)cc2)cc1 ?
91.4
